Target: human Gal-1 (hGal-1) (Homo sapiens, UniProt P09382)
Sequence (P09382 2-135 limits assumed): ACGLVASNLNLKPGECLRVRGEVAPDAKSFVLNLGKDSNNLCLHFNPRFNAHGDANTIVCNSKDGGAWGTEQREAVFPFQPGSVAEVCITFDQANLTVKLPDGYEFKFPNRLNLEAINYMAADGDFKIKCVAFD
Test: Competitive binding assay: biotinylated hGal-1 to microplate-adsorbed asialofetuin (ASF)
Conditions: Activities on hGal-1; binding to ASF-coated plates, 3 hours at 4° C.; mean values; read-out: Gal-1 IC50
Protocol: Evaluation of Compound Inhibitory Activity (IC50) The inhibitory activity of compounds is determined in competitive binding assays. […] Alternatively, and preferably, a human Gal-1 version in which all six cysteines are substituted by serines may be used. Briefly, compounds are serially diluted in DMSO (working dilutions). […] The calculated IC50 values may fluctuate depending on the daily assay performance. […]
Measured IC50, listed per entry.
endpointLabel: IC50 (nM)

# compound, endpointLabel, unitsText, numericResult
data = [
    ("CO[C@@H]1[C@@H](n2cc(-c3ccc(Cl)c(F)c3F)nn2)[C@@H](O)[C@@H](CO)O[C@@H]1CC1=NO[C@]2(CC[C@H](NC(=O)OC(C)(C)C)CC2)C1 [Example 1.45]", "IC50", "nM", 800),
    ("CO[C@@H]1[C@@H](n2cc(-c3cc(F)c(F)c(F)c3)nn2)[C@@H](O)[C@@H](CO)O[C@@H]1CC1=NOC2(CCC(NC3CC3)CC2)C1 (stereo partly shown) [Example 2.16]", "IC50", "nM", 2400),
    ("CO[C@@H]1[C@@H](n2cc(-c3cc(F)c(F)c(F)c3)nn2)[C@@H](O)[C@@H](CO)O[C@@H]1CC1=NO[C@]2(CC[C@H](O)CC2)C1 [Example 2.03]", "IC50", "nM", 2000),
    ("CO[C@@H]1[C@@H](n2cc(-c3cc(F)c(F)c(F)c3)nn2)[C@@H](O)[C@@H](CO)O[C@@H]1CC1=NOC2(CCC(NCC(F)(F)F)CC2)C1 (stereo partly shown) [Example 2.17]", "IC50", "nM", 1400),
]
